- experimentDescription: Open-label drug–drug interaction study: dasatinib plasma pharmacokinetics
- Assay type: in vivo, human
- measurementContext: human, plasma, po, 100 mg

compound: Cc1nc(Nc2ncc(C(=O)Nc3c(C)cccc3Cl)s2)cc(N2CCN(CCO)CC2)n1 [Crystalline Dasatinib, dasatinib]
outputUnit: ng·h/mL
AUC(0-t): 798

* * *

- experimentDescription: Open-label drug–drug interaction study: dasatinib plasma pharmacokinetics
- Type: in vivo, human
- measurementContext: human, plasma, po, 100 mg
resultType: half-life (h)

smilesEntry: Cc1nc(Nc2ncc(C(=O)Nc3c(C)cccc3Cl)s2)cc(N2CCN(CCO)CC2)n1
resultType: half-life
measurement: 5.7

* * *

- experimentDescription: Open-label drug–drug interaction study: dasatinib plasma pharmacokinetics
- Assay type: in vivo, human
- measurementContext: human, plasma, oral, 100 mg

smilesEntry: Cc1nc(Nc2ncc(C(=O)Nc3c(C)cccc3Cl)s2)cc(N2CCN(CCO)CC2)n1
AUC(0-t), ng·h/mL: 735

* * *

- experimentDescription: Open-label drug–drug interaction study: dasatinib plasma pharmacokinetics
- Format: in vivo, human
- measurementContext: human, plasma, po, 100 mg
resultType: Cmax (ng/mL)

compound: Cc1nc(Nc2ncc(C(=O)Nc3c(C)cccc3Cl)s2)cc(N2CCN(CCO)CC2)n1 [Crystalline Dasatinib, dasatinib]
outputUnit: ng/mL
measurement: 225

* * *

- experimentDescription: Open-label drug–drug interaction study: dasatinib plasma pharmacokinetics
- Type: in vivo, human
- measurementContext: human, plasma, oral, 100 mg

smilesEntry: Cc1nc(Nc2ncc(C(=O)Nc3c(C)cccc3Cl)s2)cc(N2CCN(CCO)CC2)n1
outputUnit: ng/mL
Cmax: 195
